test: Physical stability evaluation under stress conditions; type: physicochemical; settings: Initial
Measured Parameter: Purity: Individual related material

Some solved entries appear below for comparison.
| Molecule | Measured Parameter | Result |
| --- | --- | --- |
| C[C@@H]1CN(C(=O)CC#N)CC=C1c1cc(NC(=O)C2CC2)nc2[nH]ccc12 [Example 2] | Purity: Individual related material | 0.12% |
| C[C@@H]1CN(C(=O)CC#N)CC=C1c1cc(NC(=O)C2CC2)nc2[nH]ccc12 [Example 3] | Purity: Individual related material | 0.08% |
| C[C@@H]1CN(C(=O)CC#N)CC=C1c1cc(NC(=O)C2CC2)nc2[nH]ccc12 [Example 1] | Purity: Individual related material | 0.13% |

Q: Assign Purity: Individual related material to the following record: C[C@@H]1CN(C(=O)CC#N)CC=C1c1cc(NC(=O)C2CC2)nc2[nH]ccc12 [Example 4]
A: 0.13%

---

assay: Hygroscopicity evaluation; format: physicochemical; conditions: relative humidity 75%, 4 W; in %
Measured Parameter: Individual related material

| Compound | Individual related material |
| --- | --- |
| C[C@@H]1CN(C(=O)CC#N)CC=C1c1cc(NC(=O)C2CC2)nc2[nH]ccc12 [Example 2] | 0.11 |
| C[C@@H]1CN(C(=O)CC#N)CC=C1c1cc(NC(=O)C2CC2)nc2[nH]ccc12 [Example 4] | 0.16 |

Give one value of Individual related material per listed compound.
1. C[C@@H]1CN(C(=O)CC#N)CC=C1c1cc(NC(=O)C2CC2)nc2[nH]ccc12 [Example 3]
2. C[C@@H]1CN(C(=O)CC#N)CC=C1c1cc(NC(=O)C2CC2)nc2[nH]ccc12 [Example 1]

A:
1: 0.07; 2: 0.11

---

Assay: Photostability evaluation
Assay type: physicochemical
Conditions: Solid, UV + Vis
Description: Samples were packaged in LPDE bag, and stored under visible (1.2M Lux-h), UV (200 W-h/m2) and UV+visible conditions, respectively, and then evaluated.
Answer each item with its documented Individual related material.

Give one value of Individual related material per listed compound.
1. C[C@@H]1CN(C(=O)CC#N)CC=C1c1cc(NC(=O)C2CC2)nc2[nH]ccc12 [Example 2]
2. C[C@@H]1CN(C(=O)CC#N)CC=C1c1cc(NC(=O)C2CC2)nc2[nH]ccc12 [Example 3]
3. C[C@@H]1CN(C(=O)CC#N)CC=C1c1cc(NC(=O)C2CC2)nc2[nH]ccc12 [Example 4]
4. C[C@@H]1CN(C(=O)CC#N)CC=C1c1cc(NC(=O)C2CC2)nc2[nH]ccc12 [Example 1]
5. C[C@@H]1CN(C(=O)CC#N)CC=C1c1cc(NC(=O)C2CC2)nc2[nH]ccc12 [Example 5]

A:
1: 0.12%; 2: 0.08%; 3: 0.13%; 4: 0.81%; 5: 1.96%

---

assay: Physical stability evaluation under stress conditions; type: physicochemical; conditions: S4W: 4 weeks at 60° C./80% RH
Answer each item with its documented Content (anhydride, as anhydride).
Answers are plain numbers, in %.

Some solved entries appear below for comparison.
| Compound | Content (anhydride, as anhydride), % |
| --- | --- |
| C[C@@H]1CN(C(=O)CC#N)CC=C1c1cc(NC(=O)C2CC2)nc2[nH]ccc12 [Example 1] | 98.6 |
| C[C@@H]1CN(C(=O)CC#N)CC=C1c1cc(NC(=O)C2CC2)nc2[nH]ccc12 [Example 2] | 99.2 |
| C[C@@H]1CN(C(=O)CC#N)CC=C1c1cc(NC(=O)C2CC2)nc2[nH]ccc12 [Example 4] | 101.9 |

Q: Assign Content (anhydride, as anhydride) to the following record: C[C@@H]1CN(C(=O)CC#N)CC=C1c1cc(NC(=O)C2CC2)nc2[nH]ccc12 [Example 3]
A: 99.9

---

Answer each item with its documented Water.
test: Hygroscopicity evaluation; assay type: physicochemical; conditions: relative humidity 53%, 2 W
Numbers only, in %.

| Molecule | Measurement Unit | Water |
| --- | --- | --- |
| C[C@@H]1CN(C(=O)CC#N)CC=C1c1cc(NC(=O)C2CC2)nc2[nH]ccc12 [Example 4] | % | 0.80 |
| C[C@@H]1CN(C(=O)CC#N)CC=C1c1cc(NC(=O)C2CC2)nc2[nH]ccc12 [Example 1] | % | 5.21 |
| C[C@@H]1CN(C(=O)CC#N)CC=C1c1cc(NC(=O)C2CC2)nc2[nH]ccc12 [Example 3] | % | 0.53 |

Q: Assign Water to the following record: C[C@@H]1CN(C(=O)CC#N)CC=C1c1cc(NC(=O)C2CC2)nc2[nH]ccc12 [Example 2]
A: 3.62

---

tested on: JAK1; assay: Human whole blood assay, JAK1; type: cell-based; conditions: cytokine-induced STAT phosphorylation
Measured Parameter: IC50
# include the unit after the value

Q: Assign IC50 to the following record: C[C@@H]1CN(C(=O)CC#N)CC=C1c1cc(NC(=O)C2CC2)nc2[nH]ccc12 [Compound 1]
A: 70 nM

---

assay: Physical stability evaluation under stress conditions; type: physicochemical; conditions: Initial
Answer each item with its documented C.I quantitative.
Numbers only, in %.

Some solved entries appear below for comparison.
| Compound | C.I quantitative [%] |
| --- | --- |
| C[C@@H]1CN(C(=O)CC#N)CC=C1c1cc(NC(=O)C2CC2)nc2[nH]ccc12 [Example 4] | 40.3 |
| C[C@@H]1CN(C(=O)CC#N)CC=C1c1cc(NC(=O)C2CC2)nc2[nH]ccc12 [Example 3] | 24.0 |
| C[C@@H]1CN(C(=O)CC#N)CC=C1c1cc(NC(=O)C2CC2)nc2[nH]ccc12 [Example 2] | 18.1 |

Q: Assign C.I quantitative to the following record: C[C@@H]1CN(C(=O)CC#N)CC=C1c1cc(NC(=O)C2CC2)nc2[nH]ccc12 [Example 1]
A: 9.2

---

experiment: Photostability evaluation; assay type: physicochemical; details: Solid, Control
Measured Parameter: Total related material (%)
Answers are plain numbers, in %.

| Compound | Measurement Unit | Total related material |
| --- | --- | --- |
| C[C@@H]1CN(C(=O)CC#N)CC=C1c1cc(NC(=O)C2CC2)nc2[nH]ccc12 [Example 4] | % | 0.14 |
| C[C@@H]1CN(C(=O)CC#N)CC=C1c1cc(NC(=O)C2CC2)nc2[nH]ccc12 [Example 5] | % | 0.65 |
| C[C@@H]1CN(C(=O)CC#N)CC=C1c1cc(NC(=O)C2CC2)nc2[nH]ccc12 [Example 2] | % | 0.44 |
| C[C@@H]1CN(C(=O)CC#N)CC=C1c1cc(NC(=O)C2CC2)nc2[nH]ccc12 [Example 3] | % | 0.37 |

Now examine the next entry.
Q: Assign Total related material to the following record: C[C@@H]1CN(C(=O)CC#N)CC=C1c1cc(NC(=O)C2CC2)nc2[nH]ccc12 [Example 1]
A: 0.55

---

assay: Hygroscopicity evaluation; type: physicochemical; details: relative humidity 53%, 2 W
Measured Parameter: Total related material (%)
Numbers only, in %.

Some solved entries appear below for comparison.
| Compound | Total related material [%] |
| --- | --- |
| C[C@@H]1CN(C(=O)CC#N)CC=C1c1cc(NC(=O)C2CC2)nc2[nH]ccc12 [Example 3] | 0.43 |
| C[C@@H]1CN(C(=O)CC#N)CC=C1c1cc(NC(=O)C2CC2)nc2[nH]ccc12 [Example 1] | 0.78 |

Give one value of Total related material per listed compound.
1. C[C@@H]1CN(C(=O)CC#N)CC=C1c1cc(NC(=O)C2CC2)nc2[nH]ccc12 [Example 4]
2. C[C@@H]1CN(C(=O)CC#N)CC=C1c1cc(NC(=O)C2CC2)nc2[nH]ccc12 [Example 2]

A:
1: 1.18; 2: 0.66

---

experiment: Hygroscopicity evaluation; format: physicochemical; details: relative humidity 53%, 4 W; in %
Answer each item with its documented Individual related material.
Give bare numbers.

Give one value of Individual related material per listed compound.
1. C[C@@H]1CN(C(=O)CC#N)CC=C1c1cc(NC(=O)C2CC2)nc2[nH]ccc12 [Example 1]
2. C[C@@H]1CN(C(=O)CC#N)CC=C1c1cc(NC(=O)C2CC2)nc2[nH]ccc12 [Example 2]
3. C[C@@H]1CN(C(=O)CC#N)CC=C1c1cc(NC(=O)C2CC2)nc2[nH]ccc12 [Example 3]
4. C[C@@H]1CN(C(=O)CC#N)CC=C1c1cc(NC(=O)C2CC2)nc2[nH]ccc12 [Example 4]

A:
1: 0.12; 2: 0.11; 3: 0.07; 4: 0.15

---

test: Hygroscopicity evaluation; type: physicochemical; conditions: relative humidity 93%, 4 W
Measured Parameter: Total related material (%)
Answers are plain numbers, in %.

| Molecule | Quantitative Readout |
| --- | --- |
| C[C@@H]1CN(C(=O)CC#N)CC=C1c1cc(NC(=O)C2CC2)nc2[nH]ccc12 [Example 2] | 0.62 |
| C[C@@H]1CN(C(=O)CC#N)CC=C1c1cc(NC(=O)C2CC2)nc2[nH]ccc12 [Example 1] | 0.94 |
| C[C@@H]1CN(C(=O)CC#N)CC=C1c1cc(NC(=O)C2CC2)nc2[nH]ccc12 [Example 3] | 0.33 |

Now examine the next entry.
Q: Assign Total related material to the following record: C[C@@H]1CN(C(=O)CC#N)CC=C1c1cc(NC(=O)C2CC2)nc2[nH]ccc12 [Example 4]
A: 1.15

Reference source for all entries: patent US20240300943A1
